Below is a list of entries, each paired with its recorded MIC value.
- System: Staphylococcus aureus
- Test Summary: Antimicrobial activity against daptomycin-susceptible Staphylococcus aureus ATCC 29213 incubated anaerobically at 37 degC for 48 hrs by agar dilution method
- Type: functional
- Assay Context: ATCC 29213, 48 h
Write the number in µg/mL without appending the unit.

Known results for compounds:
# Compound, Tested On, Measurement Units, MIC
rows = [
    ("CCCCCOc1ccc(/C=C/C(=O)N[C@@H](Cc2c[nH]c3ccccc23)C(=O)N[C@@H](CC(N)=O)C(=O)N[C@@H](CC(=O)O)C(=O)N[C@@H]2C(=O)NCC(=O)N[C@@H](CCCN)C(=O)NC(CC(=O)O)C(=O)N[C@H](C)C(=O)N[C@@H](CC(=O)O)C(=O)NCC(=O)N[C@H](CO)C(=O)N[C@@H]([C@@H](C)CC(=O)O)C(=O)N[C@@H](CC(=O)c3ccccc3N)C(=O)O[C@@H]2C)cc1 (single isomer, unassigned)", "Staphylococcus aureus", "µg/mL", 4),
    ("CCCCCCCCOc1ccc(-c2ccc(C(=O)N[C@@H](Cc3c[nH]c4ccccc34)C(=O)N[C@@H](CC(N)=O)C(=O)N[C@@H](CC(=O)O)C(=O)N[C@@H]3C(=O)NCC(=O)N[C@@H](CCCN)C(=O)N[C@H](CC(=O)O)C(=O)N[C@H](C)C(=O)N[C@@H](CC(=O)O)C(=O)NCC(=O)N[C@H](CO)C(=O)N[C@@H]([C@@H](C)CC(=O)O)C(=O)N[C@@H](CC(=O)c4ccccc4N)C(=O)O[C@@H]3C)cc2)cc1", "Staphylococcus aureus", "µg/mL", 0.125),
]

Turning to the following compound.
Give Staphylococcus aureus MIC for the following compound: `C[C@H]1NC(=O)[C@@H](CC(=O)O)NC(=O)[C@H](CCCN)NC(=O)CNC(=O)[C@@H](NC(=O)[C@H](CC(=O)O)NC(=O)[C@H](CC(N)=O)NC(=O)[C@H](Cc2c[nH]c3ccccc23)NC(=O)c2ccc(-c3ccc(Cl)cc3)cc2)[C@@H](C)OC(=O)[C@H](CC(=O)c2ccccc2N)NC(=O)[C@H]([C@@H](C)CC(=O)O)NC(=O)[C@@H](CO)NC(=O)CNC(=O)[C@H](CC(=O)O)NC1=O`
4

###

- Tested on: Staphylococcus aureus
- Test Summary: Antimicrobial activity against daptomycin-susceptible Staphylococcus aureus ATCC 29213 incubated anaerobically at 37 degC for 48 hrs by agar dilution method
- Type: functional
- Assay Context: ATCC 29213, 48 h
Below is a list of entries, each paired with its recorded MIC value.
Field note: include the unit after the figure.

# Compound, Measurement Name, Reading
records = [
    ("CCCCCCCCCCCCCC(=O)N[C@@H](Cc1c[nH]c2ccccc12)C(=O)N[C@@H](CC(N)=O)C(=O)N[C@@H](CC(=O)O)C(=O)N[C@@H]1C(=O)NCC(=O)N[C@@H](CCCN)C(=O)NC(CC(=O)O)C(=O)N[C@H](C)C(=O)N[C@@H](CC(=O)O)C(=O)NCC(=O)N[C@H](CO)C(=O)N[C@@H]([C@@H](C)CC(=O)O)C(=O)N[C@@H](CC(=O)c2ccccc2N)C(=O)O[C@@H]1C (single isomer, unassigned)", "MIC", "1 µg/mL"),
]

Identify measured MIC associated with CCCCCCCCCCCCCCC(=O)N[C@@H](Cc1c[nH]c2ccccc12)C(=O)N[C@@H](CC(N)=O)C(=O)N[C@@H](CC(=O)O)C(=O)N[C@@H]1C(=O)NCC(=O)N[C@@H](CCCN)C(=O)NC(CC(=O)O)C(=O)N[C@H](C)C(=O)N[C@@H](CC(=O)O)C(=O)NCC(=O)N[C@H](CO)C(=O)N[C@@H]([C@@H](C)CC(=O)O)C(=O)N[C@@H](CC(=O)c2ccccc2N)C(=O)O[C@@H]1C (single isomer, unassigned)
1 µg/mL
